- ASSAY_PROCEDURE: Inhibition of Haemophilus influenzae DHFR assessed as oxidation of NADPH using dihydrofolate as substrate pre-incubated for 10 mins before substrate addition by spectrophotometry
Answer each item with its documented pKi.
One number for each entry, as −log10 of the molar value.

# SMILES_REPRESENTATION, pKi
records = [
    ("Cc1cc2c(N)nc(N)nc2cc1-c1ccccc1", 11.14),
]

I'm hoping you can list pKi for every molecule here, please.
1. CC(=O)c1cccc(-c2ccc3c(N)nc(N)nc3c2)c1
2. CS(=O)(=O)c1ccc(-c2ccc3c(N)nc(N)nc3c2)cc1
3. CCc1ccccc1-c1cc2nc(N)nc(N)c2cc1C
4. COc1ccc(OC)c(-c2cc3nc(N)nc(N)c3cc2C)c1
5. Cc1cc2c(N)nc(N)nc2cc1-c1ccc(N)cc1
6. CCOc1ccc(Br)cc1-c1cc2nc(N)nc(N)c2cc1C
7. CCOc1ccc(-c2cccnc2)cc1-c1ccc2c(N)nc(N)nc2c1

Result:
1. 9.51
2. 9.66
3. 10.49
4. 10.85
5. 11.74
6. 10.36
7. 10.96

I'm hoping you can list pKi for every molecule here, please.
1. Cc1cc2c(N)nc(N)nc2cc1-c1ccc(S(C)(=O)=O)cc1
2. CCOc1ccccc1-c1ccc2c(N)nc(N)nc2c1
3. Cc1cc2c(N)nc(N)nc2cc1-c1ccccc1C(C)C
4. Cc1ccccc1-c1cc2nc(N)nc(N)c2cc1C

Result:
1: 11.64; 2: 9.57; 3: 10.43; 4: 10.43

Reference for the values: ChEMBL document CHEMBL1817628
